# System: P388 leukemia ip, CD2F1 mice, survival T/C
# TEST_SUMMARY: NCI In Vivo Anticancer Drug Screen. Data for tumor model P388 Leukemia (intraperitoneal) in CD2F1 (CDF1) mice
# REPORTED_CONDITIONS: endpoint: median survival time; dose: 50.0 mg/kg/injection; schedule: Q01DX009 (ip); vehicle: saline with Tween-80; higher = longer survival
Toxic doses and inconclusive results are not listed.
MEASUREMENT_TYPE: T/C

COC(=O)c1ccc2cc1Nc1c(C#N)cnc(=S)n1-2: 114 % of control

Provide T/C values for the following items, in order.
1. Cc1cc2c(cc1C)-c1c(oc3cc(C)c(C)cc13)-c1ccccc1C(=O)O2
2. CCN(CC)CCSC(=O)N1c2ccccc2Sc2ccc(Cl)cc21
3. CCOC(=O)N1CCN(CCCCCOc2ccccc2C2CCCCC2)CC1
4. S=C(S)NN1CCCC1
5. COC(=O)c1cc(C)cc(O)c1C
6. CC(C)CNC(=O)CNC(=O)C=[N+]=[N-]
7. CCCCCCSC(=O)Nc1ccc(C)c(NC(=O)SCCCCCC)c1
8. CCCc1c(C(=O)O)c(-c2cccc3ccccc23)c(CCC)c2c1-c1cccc3cccc-2c13

OUT:
94 % of control
100 % of control
110 % of control
100 % of control
102 % of control
104 % of control
100 % of control
105 % of control

Provide T/C values for the following items, in order.
1. Cc1ccc(NC(=O)Oc2cc(C)c(C)cc2Cl)c([N+](=O)[O-])c1
2. CN1C(=O)C(=C/C=C/N(C)c2ccccc2)C(=O)N(C)C1=O
3. COc1ccc(S(=O)(=O)N=N/C=C2\C=CC=CN2O)cc1OC
4. Nc1nc2c(C(=O)N3CCOCC3)nnn2c2ccccc12
5. CCN1c2ccccc2CC(C#N)(CCN(C)C)c2ccccc21 (stereo unspecified)
6. O=C(CCl)N1c2ccccc2Sc2c1ccc1ccccc21
7. CCN(C)c1cc(=O)c2ccc3ccccc3c2o1
8. Cc1ncc(C(N)=S)c(N)n1

OUT:
1: 107 % of control; 2: 96 % of control; 3: 119 % of control; 4: 100 % of control; 5: 104 % of control; 6: 116 % of control; 7: 101 % of control; 8: 103 % of control

Provide T/C values for the following items, in order.
1. O=C(Nc1ccccc1)Oc1cccc(/C=N/S(=O)(=O)c2cccc([N+](=O)[O-])c2)c1
2. C[Si](C)(C)OSc1ccccc1[N+](=O)[O-]
3. CC(N)C(=O)NC(C)P(=O)(O)O (stereo unspecified)
4. CC(CN1CCCCC1)C(=O)c1ccc(-c2ccccc2)cc1 (stereo unspecified)
5. CC(SCc1ccccc1)C(N)C(=O)O (stereo unspecified)

OUT:
93 % of control
120 % of control
102 % of control
105 % of control
100 % of control

----------
# Tested on: P388 leukemia ip, CD2F1 mice, survival T/C
# TEST_SUMMARY: NCI In Vivo Anticancer Drug Screen. Data for tumor model P388 Leukemia (intraperitoneal) in CD2F1 (CDF1) mice
# REPORTED_CONDITIONS: endpoint: median survival time; dose: 60.0 mg/kg/injection; schedule: Q01DX005 (ip); vehicle: Klucel (hydroxypropylcellulose) (HPC); higher = longer survival
Inconclusive results and toxic doses are left out.
MEASUREMENT_TYPE: T/C

O=C1OC(c2cccnc2)OC(c2ccccc2)=C1C(=O)c1ccccc1 (configuration not stated): 107 % of control

Provide T/C values for the following items, in order.
1. CS(=O)(=O)Nc1nc2ccccc2c(=O)o1
2. CCN(CCC#N)C(=O)c1cccc([N+](=O)[O-])c1
3. COc1ccc(C2OC3=C(Nc4cc(C)c(C)cc4N3)C2=O)cc1 (configuration not stated)
4. O=C1OI(O)c2ccccc21
5. CSc1nc(=O)n(CCC#N)nc1SC
6. COc1cccc(/C=C2/C(=O)N(c3ccc([N+](=O)[O-])cc3)N=C2C)c1
7. COc1cc(Br)c(C2SCC(=O)N2c2nncs2)cc1OC (configuration not stated)
8. S=C1NCCOc2ccccc21

OUT:
107 % of control
102 % of control
89 % of control
106 % of control
98 % of control
88 % of control
121 % of control
100 % of control

----------
Please provide measured T/C for the entries that follow.
# Tested on: P388 leukemia ip, CD2F1 mice, survival T/C
# TEST_SUMMARY: NCI In Vivo Anticancer Drug Screen. Data for tumor model P388 Leukemia (intraperitoneal) in CD2F1 (CDF1) mice
# REPORTED_CONDITIONS: endpoint: median survival time; dose: 200.0 mg/kg/injection; schedule: Q01DX009 (ip); vehicle: Klucel (hydroxypropylcellulose) (HPC); higher = longer survival
Toxic doses and inconclusive results are not listed.

Recorded T/C, per entry:
COC(=O)C1CC(c2ccccc2)N(c2ccccc2)O1 (centres undefined): 100 % of control
O=c1[nH]c2ccccc2[nH]1: 117 % of control
S=C(N/N=C/c1ccc(Cl)cc1)Nc1ccccc1: 100 % of control
C1CC1c1nn[nH]n1: 107 % of control
ICC1(CI)COC1: 104 % of control
Cc1cccc(NC(=O)Nc2ccccc2Cl)n1: 93 % of control
Cc1c([N+](=O)[O-])/c(=N/O)c2c(=O)c([N+](=O)[O-])coc2n1O: 90 % of control
OC(c1ccncc1)(c1ccc(Cl)cc1)c1cccs1 (centres undefined): 93 % of control
CC(C)(C)C1(C#N)C(=O)N(c2ccc(Cl)cc2)C12c1ccccc1-c1ccccc12 (centres undefined): 105 % of control
C#CCOc1ccc(Cl)cc1[N+](=O)[O-]: 104 % of control

Provide T/C values for the following items, in order.
1. COC(=O)c1cc(C#N)n2ccc3ccccc3c12
2. COC1NC(=O)Oc2c(F)cccc21 (centres undefined)
3. Cc1ccc(N2C(=O)CC3(CCCCC3)C2=O)c(C)c1
4. CC(=O)Oc1cccc2c1C(=O)c1c(OC(C)=O)cccc1C2=O
5. CN(C)c1ccc(/C=C/c2ccc3c(c2)OCO3)cc1
6. Cc1ccc(S(=O)(=O)OCCn2nc(C)c3c(C)cc(=O)oc32)cc1
7. CC(C)(C)C(=O)CC(=O)C(F)(F)C(F)(F)C(F)(F)F.CC(C)(C)C(=O)CC(=O)C(F)(F)C(F)(F)C(F)(F)F.CC(C)(C)C(=O)CC(=O)C(F)(F)C(F)(F)C(F)(F)F.[Er]

OUT:
94 % of control
104 % of control
103 % of control
87 % of control
98 % of control
100 % of control
95 % of control

Provide T/C values for the following items, in order.
1. S=c1[nH]c2ccccc2n1CCc1ccncc1
2. CCCc1c(-n2[nH]c(=O)n(-c3ccccc3)c2=O)c(=O)n(C)c(=O)n1C

OUT:
["94 % of control", "95 % of control"]

----------
Please provide measured T/C for the entries that follow.
# System: P388 leukemia ip, CD2F1 mice, survival T/C
# TEST_SUMMARY: NCI In Vivo Anticancer Drug Screen. Data for tumor model P388 Leukemia (intraperitoneal) in CD2F1 (CDF1) mice
# REPORTED_CONDITIONS: endpoint: median survival time; dose: 120.0 mg/kg/injection; schedule: Q01DX005 (ip); vehicle: saline; higher = longer survival
Toxic doses and inconclusive results are not listed.

Recorded T/C, per entry:
COC(=O)c1cc(-c2ccccc2)[nH]c(=O)c1C#N: 100 % of control
CCN(CC)P1(=O)C=C(C)C2C1C1C=C(C)C2P1(=O)N(CC)CC (centres undefined): 101 % of control
C#CCCCOC1CCCCO1 (centres undefined): 100 % of control
CS(=O)CC(=N\N)/C(CS(C)=O)=N/N (centres undefined): 95 % of control
CCOC(C#CC(C)=O)OCC: 103 % of control

Provide T/C values for the following items, in order.
1. CC[N+]12CC=C(CO)C1C(O)CC2 (centres undefined)
2. CC1(C)CC(=O)N(CN2CCOCC2)C(=O)C1
3. Nc1nnc(-c2cccc(-c3nnc(N)o3)c2)o1
4. CCC(=O)C12CCCC1=NC(=N)N=C2C1=NC(=N)N=C2CCCC21C(=O)CC (centres undefined)

OUT:
1: 95 % of control; 2: 100 % of control; 3: 99 % of control; 4: 108 % of control

----------
# Tested on: P388 leukemia ip, CD2F1 mice, survival T/C
# TEST_SUMMARY: NCI In Vivo Anticancer Drug Screen. Data for tumor model P388 Leukemia (intraperitoneal) in CD2F1 (CDF1) mice
# REPORTED_CONDITIONS: endpoint: median survival time; dose: 120.0 mg/kg/injection; schedule: Q01DX005 (ip); vehicle: saline with Tween-80; higher = longer survival
Toxic doses and inconclusive results are not listed.
Please provide measured T/C for the entries that follow.

Cc1ccc(-c2sc3ccccc3c(=O)c2CCl)cc1CO: 95 % of control
O=C1c2cc3c(cc2C(=O)c2cc(-c4ccccc4)c(-c4ccccc4)cc21)OCO3: 100 % of control
Cc1nnc2c3nccnc3c(N)nn12: 104 % of control
Cc1nc2c(o1)CCCC2: 90 % of control
O=C(O)c1c2c(nc3ccccc13)CCC(C(=O)O)C2 (stereo unspecified): 102 % of control
O=[N+]([O-])c1ccccc1S(=O)NCc1c(Cl)cccc1Cl (stereo unspecified): 90 % of control

Provide T/C values for the following items, in order.
1. Cc1cc(=O)c(C#N)c(C)o1
2. Cc1ccccc1NC(=O)OCCCl
3. O=C(/C=C/c1cn(C(=O)CCCl)c2ccccc12)c1cccc([N+](=O)[O-])c1

OUT:
97 % of control
100 % of control
96 % of control

Provide T/C values for the following items, in order.
1. COC(=O)CCP(CCC(=O)OC)c1ccccc1
2. CCOC(=O)C1=C(C)N(C)C(C)=C(C(=O)OCC)C1

OUT:
1. 99 % of control
2. 100 % of control

Provide T/C values for the following items, in order.
1. CC(C)(C)SC(=S)SCC(=O)c1ccc(F)cc1
2. COC(=O)c1nc(N)nc(C(=O)OC)c1C(=O)c1ccc(Cl)c(Cl)c1
3. Nc1nc(-c2cc(Cl)cc(Cl)c2)cc(-c2cc(-c3cc(Cl)cc(Cl)c3)nc(N)n2)n1
4. CN(C)c1ccc([N+]([O-])=Nc2ccc3ccccc3c2)cc1
5. Cc1cc2c(cc1C)[n+](=O)c1c(n2[O-])CCC1

OUT:
103 % of control
94 % of control
106 % of control
89 % of control
95 % of control

Data credit: PubChem BioAssay AID330
